# Tested on: S. mansoni schistosomulae
# protocolText: Motility assay on schistosomulae (pixel displacement, relative to DMSO control)
# Assay type: cell-based, Schistosoma mansoni
# conditionSet: schistosomulae, secondary screen, 24h exposure, read at D1, 10 µM
quantityMeasured: Fractional motility
Just the number, please, no unit after it.

// known answers, use as guide
compound	quantityMeasured	recordedResult
NCC(=O)Nc1ccc(-n2nc(C(F)(F)F)cc2-c2ccc3c(ccc4ccccc43)c2)cc1	Fractional motility	-1.00
C=C1C(=O)O[C@H]2[C@H]1CC/C(C)=C/CC[C@@]1(C)O[C@@H]21 [(-)-Parthenolide]	Fractional motility	0.67

Now let's try a different one.
Query string: Which value of Fractional motility has been reported for C#C[C@]1(O)C=C[C@H]2[C@@H]3CCC4=CC(=O)CC[C@@H]4[C@H]3CC[C@@]21CC in the records?
Result string: 4.27

* * *

Fractional motility listing for selected compounds.
# Tested on: S. mansoni schistosomulae
# protocolText: Motility assay on schistosomulae (pixel displacement, relative to DMSO control)
# Type: cell-based, Schistosoma mansoni
# conditionSet: schistosomulae, secondary screen, 24h exposure, read at D1, 10 µM
# Method: Puerto Rican strain Biomphalaria glabrata snails infected with S. mansoni were kindly provided by Dr. Fred Lewis (Biomedical Research Institute and BEI Resources, MD, USA). Schistosomulae were obtained by exposing six to eight weeks-old snails to continuous light for 2 h at 32 °C. […]

compound	Fractional motility
C/C(=N\NC(=S)N1CCC1)c1ccccn1	0.59
Cc1nc(C#Cc2ccnc(Cl)c2)c(C)n1-c1ccc(OC(F)(F)F)cc1	1.01
CCOC(=O)C1=C(C)NC(C)=C(C(=O)OCC)C1c1ccccc1/C=C/C(=O)OC(C)(C)C	3.79
O=C(O[C@H]1CN2CCC1CC2)N1CCc2ccccc2[C@@H]1c1ccccc1	1.46
O=C(Nc1ccccc1-c1cn2c(CN3CCNCC3)csc2n1)c1cnc2ccccc2n1	-1.00

Query string: Provide the documented Fractional motility with S. mansoni schistosomulae as the system for CN(C)CCC[C@@]1(c2ccc(F)cc2)OCc2cc(C#N)ccc21
Result string: 5.42

Query string: Give recorded Fractional motility with S. mansoni schistosomulae for the following compound: COc1cc(N2CCN(C)CC2)ccc1Nc1nccc(-c2cn(C)c3cnccc23)n1
Result string: -0.69

Query string: API: value(readout=Fractional motility, system=S. mansoni schistosomulae) for record CCN(CC)CCOc1ccc(C(=C(Cl)c2ccccc2)c2ccccc2)cc1
Result string: 1.47

Query string: Please provide the recorded Fractional motility for O=[N+]([O-])c1ccc2c(c1)S(=O)(=O)C=C2 , tested on S. mansoni schistosomulae.
Result string: 1.23

Query string: Quick check: Fractional motility on S. mansoni schistosomulae, item C=CC[C@]1(O)CC[C@H]2[C@@H]3CCC4=CC(=O)CCC4=C3C=C[C@@]21C ?
Result string: 10.00

Query string: // fetch S. mansoni schistosomulae Fractional motility for N#CSc1cc(SC#N)c(N)nc1N
Result string: 0.27

Query string: Recall the recorded Fractional motility for CNCCC(Oc1ccc(C(F)(F)F)cc1)c1ccccc1 (stereo not drawn) with S. mansoni schistosomulae and state it.
Result string: 15.72

* * *

Reported Fractional motility values follow for various compounds
# System: S. mansoni schistosomulae
# protocolText: Motility assay on schistosomulae (pixel displacement, relative to DMSO control)
# Assay type: cell-based, Schistosoma mansoni
# conditionSet: schistosomulae, secondary screen, 24h exposure, read at D1, 1 µM
The reply should be a number, written without any unit.

structure	assayedSystem	Fractional motility
CCOC(=O)CCNc1cc(N2CCc3ccccc3CC2)nc(-c2ccccn2)n1	S. mansoni schistosomulae	0.46

Query string: Recorded Fractional motility for CC(=O)c1cc([N+](=O)[O-])c(Sc2ccc(F)cc2F)s1 , please?
Result string: -0.36

Query string: For the compound shown here, O=C(/C=C/c1ccc2ccccc2n1)c1ccncc1 , give the reported Fractional motility.
Result string: 1.64

* * *

# Test system: S. mansoni adult worms
# protocolText: Motility assay on adult parasites (pixel displacement, relative to DMSO control)
# Type: cell-based, Schistosoma mansoni
# conditionSet: secondary screen, 10 μM, D5, Female adult worms
quantityMeasured: Fractional motility
# print the numeric value only

compound	recordedResult
COC(=O)C1=C(C)NC(C)=C(C(=O)OCCN2CCN(C(c3ccccc3)c3ccccc3)CC2)C1c1cccc([N+](=O)[O-])c1 (stereo not drawn)	-0.91
O=[N+]([O-])C=Cc1ccc2c(c1)OCO2	-0.83

// switching to the query compound
Query string: What measured Fractional motility is associated with CCCCCCCCOc1ccccc1C(=O)Nc1ccc(C(=O)OCC[N+](C)(CC)CC)cc1 on S. mansoni adult worms?
Result string: -0.67

* * *

# System: S. mansoni adult worms
# protocolText: Motility assay on adult parasites (pixel displacement, relative to DMSO control)
# Type: cell-based, Schistosoma mansoni
# conditionSet: secondary screen, 10 μM, D5, Female adult worms
# Experimental: Adult parasites were collected from 40 day-old female CD1 mice (Charles River) previously inoculated by the tail infection method ([Lewis, 2001]). […] Schistosomulae (200/well) and adult parasites (unpaired worms) were maintained in 300 μL OPTI-MEM with 5% dialyzed FBS (without antibiotics) and exposed to compounds at 1 and 10 μM for 24 h. […] Images were recorded at a rate of 10 frames/s for a period of 1 min and videos were analyzed using ImageJ software (version 1.41, NIH, USA). […]
Fractional motility strictly under -0.6 means yes; at -0.6 or over means no.

compound	classification
CN(C)CC/C=C1/c2ccccc2Sc2ccc(Cl)cc21 [Chlorprothixene]	no
CCN(CC)CCOc1ccc(C(=C(Cl)c2ccccc2)c2ccccc2)cc1 [Clomifene]	no

Now look at this one.
Query string: Record c1ccc(CNc2nc(NCc3ccccc3)c3ccccc3n2)cc1 [DBeQ] : is its Fractional motility strictly below -0.6?
Result string: yes

* * *

# Test system: S. mansoni adult worms
# protocolText: Motility assay on adult parasites (pixel displacement, relative to DMSO control)
# Type: cell-based, Schistosoma mansoni
# conditionSet: secondary screen, 10 μM, D1, Male adult worms
Item-by-item account of Fractional motility

Recorded results for 3 molecules are shown here.
molecule	Fractional motility
CCCN1C[C@H](CSC)C[C@@H]2c3cccc4[nH]cc(c34)C[C@H]21 [Pergolide]	2.14
CNCC[C@H](Oc1cccc2ccccc12)c1cccs1	4.31
COc1cc(N2CCN(C)CC2)ccc1Nc1nccc(-c2cn(C)c3cnccc23)n1	0.25

Now turn to the next molecule.
Query string: State its Fractional motility on S. mansoni adult worms: O=C(NC(NC(=S)Nc1ccc(F)c([N+](=O)[O-])c1)C(Cl)(Cl)Cl)C(c1ccccc1)c1ccccc1 (stereo not shown)
Result string: 0.12

* * *

# System: S. mansoni schistosomulae
# protocolText: Motility assay on schistosomulae (pixel displacement, relative to DMSO control)
# Type: cell-based, Schistosoma mansoni
# conditionSet: Schistosoma mansoni, 120 h; schistosomulae, secondary screen, 24h exposure, read at D5, 1 µM; read-out: Fractional motility
# Protocol: Puerto Rican strain Biomphalaria glabrata snails infected with S. mansoni were kindly provided by Dr. Fred Lewis (Biomedical Research Institute and BEI Resources, MD, USA). Schistosomulae were obtained by exposing six to eight weeks-old snails to continuous light for 2 h at 32 °C. […]
The reader will find reported activity at 1 µM values listed item by item below.
Express your answer in %, writing the number without its unit.

molecule	recordedResult
CN(C)CCCN1c2ccccc2Sc2ccc(Cl)cc21	95

Query string: Consider the molecule NCC(=O)Nc1ccc(-n2nc(C(F)(F)F)cc2-c2ccc3c(ccc4ccccc43)c2)cc1 and give its measured activity at 1 µM.
Result string: 26

Query string: # input molecule: O=C(C1CCCCC1)N1CC(=O)N2CCc3ccccc3C2C1 (stereo not drawn) ; wanted: its activity at 1 µM
Result string: -29

Query string: What measured activity at 1 µM goes with CN(C)CCC=C1c2ccccc2CCc2ccccc21 ?
Result string: -4

Query string: Fill in: activity at 1 µM of CN1CCN(C2=Nc3cc(Cl)ccc3Nc3ccccc32)CC1 is ___
Result string: 121

Query string: Quick one: activity at 1 µM of CCOC(=O)C1=C(C)NC(C)=C(C(=O)OCC)C1c1ccccc1/C=C/C(=O)OC(C)(C)C ?
Result string: -11

Query string: Which activity at 1 µM is reported for this molecule? Cc1cc(Nc2ncc(Cl)c(Nc3ccccc3S(=O)(=O)C(C)C)n2)c(OC(C)C)cc1C1CCNCC1
Result string: 120

Query string: Need activity at 1 µM, item CCCN1C[C@H](CSC)C[C@@H]2c3cccc4[nH]cc(c34)C[C@H]21 [Pergolide]
Result string: -25

Query string: Reported activity at 1 µM, molecule CC(C)(C)c1cc(NC(=O)Nc2ccc(-c3cn4c(n3)sc3cc(OCCN5CCOCC5)ccc34)cc2)no1 : ____
Result string: -2.37

Query string: Could you tell me which activity at 1 µM is on file for NC(=O)C(c1ccccc1)(c1ccccc1)[C@@H]1CCN(CCc2ccc3c(c2)CCO3)C1 ?
Result string: -59

Query string: Form field: reported activity at 1 µM of CNCc1ccc(-c2cc(-c3nc(-c4ccc(S(=O)(=O)C(C)C)cc4)cnc3N)on2)cc1
Result string: -14

Query string: Please report the recorded activity at 1 µM for C=CC(=O)Nc1cccc(Oc2nc(Nc3ccc(N4CCN(C)CC4)cc3OC)ncc2Cl)c1 .
Result string: 51
